Reference source: patent US20240299322A1

Tested on: BRCA2 mutant ovarian tumor cell line PEO1
measurement.notes: Cell sensitivity analysis on PEO1 cell line, single and combination treatment, Isobole plot
Assay type: cell-based
measurement.context: Homo sapiens, PEO1, 204 h, PEO1; Example 4, FIGS. 4A, 4B; read-out: IC50 single treatment
property.name: pIC50
Please report pIC50 as the negative decimal logarithm of the molar concentration, giving only the number.

Input line: Return reported pIC50; argument: CC1=C(CN(O)C(N)=O)C2=C(C)C3(CC3)[C@@](C)(O)C(=O)C2=C1 [LP-184, (−)-hydroxyureamethyl acylfulvene]
Output line: 7.06
